- tgt: T1, cynomolgus monkey GPRC5D (cynomolgus monkey)
- T1 construct: whole, on cells; HEK293T-cynoGPRC5D cells; also called cynoGPRC5D
- experiment: FACS, HEK293T-cynoGPRC5D cells
reported.property: MFI

binder="98A3A8 (antibody, V domains shown, Mouse monoclonal antibody from hybridoma subclone) VH: EVQLQQSGPELVKPGASVKMSCKASGYTFTYYVTHWVRQKPGQGLEWIGYINPYNDGTMFNEKFKGKATLTSDKSSSTAYMEFSSLTSEDSAVFYCARGGVRRYFDVWGAGTTVTVSS VL: DIQMTQSPSSLSASLGERVSLTCRASQDIGSNLNWLQQKPDGTIKRLIYATSSLDSGVPKRFSGSRSGSDYSLTINSLESEDFVDYYCLQYASFPYTFGGGTKLEIK" result_value=2070
binder="101B3G3 (antibody, V domains shown, Mouse monoclonal antibody from hybridoma subclone) VH: EVQLQQSGPELVKPGASMKISCKASGYSFTGYTMNWVKQSHGKNLEWIGLINPYNGGTRYNQKFKDKATLTVDKSSSTAYMELLSLTSEDSAVYYCARWLLRYAMDYWGQGTSVTVSS VL: DIVMTQSQKFMSTSVGDRVSITCKASQNVGNAVAWYQQKPGHSPKLLISSASNRKNGVPDRFTGSGSGTDFTLTVSNMQSEDLADYFCQQYSDSSWTFGGGTKLEIK" result_value=585
binder="116G1G4 (antibody, V domains shown, Mouse monoclonal antibody from hybridoma subclone) VH: EVQLQQSGPELVKPGASVKMSCKASGYTFTYYIMHWVKQEPGQGLQWIGYINPYNDGAYYSARFKGKATLTSDKSSSTAYMDLTSLTSEDSAVYYCARGGVRRYFDVWGAGTTVTVSS VL: DIQMTQSPSSLSASLGERVILTCRASQDIGSNLIWLQQKPDGTIKRLIYATFNLDSGVSKRFSGSRSGSDYSLTISSLDSEDFVDYYCLQYASSPYTFGGGTKLEIK" result_value=344
binder="89F11E3 (antibody, V domains shown, Mouse monoclonal antibody from hybridoma subclone) VH: QVQLQQSGAELARPGASVKMSCKASGYTFTSSTIHWVKQRPGQGLAWIGYIVPSTGYTNYNQKFKDKATLTADKSSSTAYMQLTSLTSEDSAVYYCARSDGYPFGYSMAYWGQGTSVTVSS VL: DIQMNQSPSSLSASLGDTITITCHASQNINVWLSWYHQKPGNIPKLLIYKASNLHTGVPSRFSGSGSGTGFTLTISRLQPEDIATYYCQQGQSYPFTFGSGTKLEIK" result_value=16500
binder="96C9E7 (antibody, V domains shown, Mouse monoclonal antibody from hybridoma subclone) VH: EVQLQQSGPELVKPGASVKMSCKASGYTFTYYILHWVKQKPGQGLEWIGYFNPYNDGNKFNERFRGKATLTSDKSSSTAYMELNSLTSEDSAVYFCARGGVRRYFDVWGAGTTVTVSS VL: DIQMTQSPSSLSASLGERVSLTCRASQDIGSNLNWLQQEPDGTIKRLISATFSLDSGVPKRFSGSRSGSDYSLTISSLESEDFVNYYCLQYASFPYTFGGGTKLEIK" result_value=4020
